The measurements presented in this section are drawn from patent US12509441B2.

Known GI50 of a selection of compounds
- Target Or System: Ba/F3-FL-EGFR-V769-D770 ins ASV (Homo sapiens, UniProt P00533, DUP767-769, cells depend on it)
- Construct: Ba/F3-FL-EGFR IC50 (nM) V769-D770ins ASV; other: 72 h; class symbols; Ba/F3-FL-EGFR IC50 (nM) V769-D770ins ASV
- Sequence (P00533 with tags, fused parts or gaps DUP767-769): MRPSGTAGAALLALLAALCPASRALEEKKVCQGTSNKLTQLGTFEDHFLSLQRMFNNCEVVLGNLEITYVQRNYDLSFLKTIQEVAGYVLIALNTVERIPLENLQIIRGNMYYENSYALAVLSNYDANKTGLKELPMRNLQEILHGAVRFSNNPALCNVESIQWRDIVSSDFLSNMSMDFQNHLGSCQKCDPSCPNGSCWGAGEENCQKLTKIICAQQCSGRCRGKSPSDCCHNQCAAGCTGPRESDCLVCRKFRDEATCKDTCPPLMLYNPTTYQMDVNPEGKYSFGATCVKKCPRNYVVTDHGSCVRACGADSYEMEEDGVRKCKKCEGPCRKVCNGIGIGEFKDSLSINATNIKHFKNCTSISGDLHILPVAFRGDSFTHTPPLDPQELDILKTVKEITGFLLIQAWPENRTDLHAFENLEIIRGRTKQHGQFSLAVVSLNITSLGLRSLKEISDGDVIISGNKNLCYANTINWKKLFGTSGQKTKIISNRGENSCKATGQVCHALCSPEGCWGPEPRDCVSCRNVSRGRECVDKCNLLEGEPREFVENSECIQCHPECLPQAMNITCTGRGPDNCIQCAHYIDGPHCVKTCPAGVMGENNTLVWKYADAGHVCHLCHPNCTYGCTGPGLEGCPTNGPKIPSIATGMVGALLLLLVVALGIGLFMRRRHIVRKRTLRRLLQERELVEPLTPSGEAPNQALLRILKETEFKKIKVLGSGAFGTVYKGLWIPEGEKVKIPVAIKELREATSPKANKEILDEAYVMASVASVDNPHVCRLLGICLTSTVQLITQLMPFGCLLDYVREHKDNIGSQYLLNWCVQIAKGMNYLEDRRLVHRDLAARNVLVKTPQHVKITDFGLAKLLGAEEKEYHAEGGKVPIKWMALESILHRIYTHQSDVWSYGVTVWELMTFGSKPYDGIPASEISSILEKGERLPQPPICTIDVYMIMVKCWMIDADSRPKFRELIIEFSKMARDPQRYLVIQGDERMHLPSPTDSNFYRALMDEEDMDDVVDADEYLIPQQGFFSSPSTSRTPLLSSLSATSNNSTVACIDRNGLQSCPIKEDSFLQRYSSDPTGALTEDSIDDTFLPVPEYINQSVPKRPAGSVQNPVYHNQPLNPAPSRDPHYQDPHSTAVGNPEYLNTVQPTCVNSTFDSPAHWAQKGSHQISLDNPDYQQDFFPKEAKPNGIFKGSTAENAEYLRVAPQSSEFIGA
- Experimental Protocol: Cell proliferation inhibitory activity test (CellTiter-Glo), EGFR exon 20 insertion mutation
- Type: cell-based
- Settings: 72 h; class symbols; read-out: Ba/F3-FL-EGFR IC50 (nM) V769-D770ins ASV

| Compound | Result |
| --- | --- |
| C=CC(=O)Nc1cc(Nc2ncc(-c3nnc(C(F)F)s3)c(-c3cn(C)c4ccccc34)n2)c(OC)cc1N(C)CCN(C)C [Example 29] | 5 to 50 nM |
| C=CC(=O)Nc1cc(Nc2ncc(-c3nnc(C(C)C)o3)c(-c3cn(C)c4ccccc34)n2)c(OC)cc1N(C)CCN(C)C [Example 31] | < 5 nM |
| C=CC(=O)Nc1cc(Nc2ncc(C3=NOC(C)(C)N3)c(-c3cn(C)c4ccccc34)n2)c(OC)cc1N(C)CCN(C)C [Example 19] | > 50 nM |

Task: Quick one: GI50 for C=CC(=O)Nc1cc(Nc2ncc(-c3nnc(C)o3)c(-c3c[nH]c4ccccc34)n2)c(OC)cc1N(C)CCN(C)C [Example 26] ?
Result: < 5 nM

Task: Another: C=CC(=O)Nc1cc(Nc2ncc(-c3nnc(C)o3)c(-c3cn(C)c4ccccc34)n2)c(OC)cc1N(C)C1CC2(C1)CN(C)C2 [Example 30]
Result: > 50 nM

Task: Another: [2H]C([2H])([2H])n1cc(-c2nc(Nc3cc(NC(=O)C=C)c(N(C)CCN(C)C)cc3OC)ncc2-c2nnc(C)o2)c2ccccc21 [Example 24]
Result: < 5 nM

Task: Another: C=CC(=O)Nc1cc(Nc2ncc(C(=O)OC(C)C)c(-c3cn(C)c4ccccc34)n2)c(OC)cc1N1C[C@H]2CN(C)C[C@H]2C1 [Example 36]
Result: < 5 nM

Task: Another: C=C(F)C(=O)Nc1cc(Nc2ncc(-c3nnc(C)o3)c(-c3cn(C)c4ccccc34)n2)c(OC)cc1N(C)CCN(C)C [Example 27]
Result: 5 to 50 nM

Task: Another: C=CC(=O)Nc1cc(Nc2ncc(-c3nnc(C)o3)c(-c3cn(C)c4ccccc34)n2)c(OC)cc1N(C)C1[C@H]2CN(C)C[C@@H]12 (some centres unmarked) [Example 18]
Result: < 5 nM

Task: Another: C=CC(=O)Nc1cc(Nc2ncc(-c3nnc(C)o3)c(-c3cn(C)c4ccccc34)n2)c(OC)cc1N(C)C1(CN(C)C)CC1 [Example 22]
Result: < 5 nM

Task: Another: C=CC(=O)Nc1cc(Nc2ncc(-c3nnc(C)o3)c(-c3cn(C)c4ccccc34)n2)c(OC)cc1N(C)CC1(N(C)C)CC1 [Example 23]
Result: < 5 nM

----------
- Target Or System: EGFR exon 20 insertion mutant kinase D770-N771insNPG (Homo sapiens, UniProt P00533, INS770NPG)
- Sequence (P00533 with tags, fused parts or gaps INS770NPG limits assumed): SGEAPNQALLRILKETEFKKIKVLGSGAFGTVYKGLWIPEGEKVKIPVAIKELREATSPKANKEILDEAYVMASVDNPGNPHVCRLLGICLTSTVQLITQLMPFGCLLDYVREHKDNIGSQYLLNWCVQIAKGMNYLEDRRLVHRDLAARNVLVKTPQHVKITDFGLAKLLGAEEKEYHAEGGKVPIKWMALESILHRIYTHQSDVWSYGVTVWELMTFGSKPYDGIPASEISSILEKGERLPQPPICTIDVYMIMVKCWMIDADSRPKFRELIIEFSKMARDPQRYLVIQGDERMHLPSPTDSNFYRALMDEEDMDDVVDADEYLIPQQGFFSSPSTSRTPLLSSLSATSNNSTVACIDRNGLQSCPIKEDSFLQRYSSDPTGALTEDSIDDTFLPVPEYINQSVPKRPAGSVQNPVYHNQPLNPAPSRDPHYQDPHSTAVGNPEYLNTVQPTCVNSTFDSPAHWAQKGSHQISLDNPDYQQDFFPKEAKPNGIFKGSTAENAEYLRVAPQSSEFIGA
- Experimental Protocol: Kinase activity assay (33P-ATP filter-binding), EGFR exon 20 insertion mutant kinase D770-N771insNPG
- Settings: ATP Km concentration; 10 concentrations
Recorded Metric: pIC50
Scale explanation: pIC50 corresponds to minus log10 of a concentration expressed in moles per litre.

Guide cases for pIC50, answers given:
| Compound | pIC50 |
| --- | --- |
| C=CC(=O)Nc1cc(Nc2ncc(-c3nnc(C)o3)c(-c3cn(C4CC4)c4ccccc34)n2)c(OCC(F)(F)F)nc1N(C)CCN(C)C | 8.55 |
| C=CC(=O)Nc1cc(Nc2ncc(C(=O)OC(C)C)c(-n3cc4c(n3)-c3ccccc3C4)n2)c(OC)cc1N(C)CCN(C)C | 9.52 |
| C=CC(=O)Nc1cc(Nc2nccc(-n3ncc4c3-c3ccccc3C4)n2)c(OC)cc1N(C)CCN(C)C | 6.77 |
| C=CC(=O)Nc1cc(Nc2ncc(C(=O)OC(C)C)c(-c3cn(C)c4ccccc34)n2)c(OC)cc1N(C)CCN(C)C [TAK788, reference compound] | 9.14 |
| C=CC(=O)Nc1cc(Nc2ncc(C(=O)OC(C)C)c(-n3cc4c(n3)Cc3ccccc3-4)n2)c(OC)cc1N(C)CCN(C)C | 5.92 |

Next compound, pIC50 to be filled in.
Task: Quick one: pIC50 for `C=CC(=O)Nc1cc(Nc2ncc(C(=O)N(C)S(C)(=O)=O)c(-c3cn(C)c4ccccc34)n2)c(OC)cc1N(C)CCN(C)C` ?
Result: 8.74

----------
- Target Or System: Ba/F3-FL-EGFR-V769-D770 ins ASV (Homo sapiens, UniProt P00533, DUP767-769, cells depend on it)
- Construct: Ba/F3-FL-EGFR IC50 (nM) V769-D770ins ASV; other: 72 h; class symbols; Ba/F3-FL-EGFR IC50 (nM) V769-D770ins ASV
- Experimental Protocol: Cell proliferation inhibitory activity test (CellTiter-Glo), EGFR exon 20 insertion mutation
- Assay type: cell-based
- Settings: 72 h; class symbols; read-out: Ba/F3-FL-EGFR IC50 (nM) V769-D770ins ASV
Recorded Metric: GI50

| Structure As Smiles | GI50 |
| --- | --- |
| C=CC(=O)Nc1cc(Nc2ncc(-c3nnc(C)o3)c(-c3cn(C)c4ccccc34)n2)c(OC)cc1N1C[C@H]2CN(C)C[C@H]2C1 | > 50 nM |
| C=C(F)C(=O)Nc1cc(Nc2ncc(-c3nnc(C)o3)c(-c3cn(C)c4ccccc34)n2)c(OC)cc1N(C)[C@H]1[C@@H]2CN(C)C[C@@H]21 | < 5 nM |
| C=CC(=O)Nc1cc(Nc2ncc(C(=O)OC(C)C)c(-c3cn(C)c4ccccc34)n2)c(OC)cc1N(C)C1(CN(C)C)CC1 | < 5 nM |
| [2H]C([2H])([2H])n1cc(-c2nc(Nc3cc(NC(=O)C=C)c(N(C)[C@H]4[C@@H]5CN(C)C[C@@H]54)cc3OC)ncc2C(=O)OC(C)C)c2ccccc21 | < 5 nM |

Task: Quick one: GI50 for `C=CC(=O)Nc1cc(Nc2ncc(C(=O)OC(C)C)c(-c3cn(C)c4ccccc34)n2)c(OC)cc1N(C)CC1(N(C)C)CC1` ?
Result: < 5 nM

Task: Another: `C=CC(=O)Nc1cc(Nc2ncc(C(=O)OC(C)C)c(-c3cn(C)c4ccccc34)n2)c(OC)cc1N(C)[C@H]1[C@@H]2CN(C)C[C@@H]21`
Result: < 5 nM

Task: Another: `C=CC(=O)Nc1cc(Nc2ncc(-c3nnco3)c(-c3cn(C)c4ccccc34)n2)c(OC)cc1N(C)CCN(C)C`
Result: < 5 nM

Task: Another: `C=CC(=O)Nc1cc(Nc2ncc(-c3nnc(C)s3)c(-c3cn(C)c4ccccc34)n2)c(OC)cc1N(C)CCN(C)C`
Result: < 5 nM

Task: Another: `C=CC(=O)Nc1cc(Nc2ncc(-c3nnc(CC)o3)c(-c3cn(C)c4ccccc34)n2)c(OC)cc1N(C)CCN(C)C`
Result: < 5 nM

Task: Another: `C=CC(=O)Nc1cc(Nc2ncc(C3=NOC(C)(C)O3)c(-c3cn(C)c4ccccc34)n2)c(OC)cc1N(C)CCN(C)C`
Result: > 50 nM

Task: Another: `C=CC(=O)Nc1cc(Nc2ncc(C(=O)OC(C)C)c(-c3cn(C)c4ccccc34)n2)c(OC)cc1N(C)[C@H]1C[C@@H]2CN(C)C[C@@H]2C1`
Result: < 5 nM

Task: Another: `C=CC(=O)Nc1cc(Nc2ncc(-c3nnc(C)o3)c(-c3cn(C)c4ccccc34)n2)c(OC)cc1N(C)C1CCN(C)CC1`
Result: 5 to 50 nM

----------
- Target Or System: Ba/F3-FL-EGFR-D77-N771 ins SVD (Homo sapiens, UniProt P00533, DUP768-770, cells depend on it)
- Sequence (P00533 with tags, fused parts or gaps DUP768-770): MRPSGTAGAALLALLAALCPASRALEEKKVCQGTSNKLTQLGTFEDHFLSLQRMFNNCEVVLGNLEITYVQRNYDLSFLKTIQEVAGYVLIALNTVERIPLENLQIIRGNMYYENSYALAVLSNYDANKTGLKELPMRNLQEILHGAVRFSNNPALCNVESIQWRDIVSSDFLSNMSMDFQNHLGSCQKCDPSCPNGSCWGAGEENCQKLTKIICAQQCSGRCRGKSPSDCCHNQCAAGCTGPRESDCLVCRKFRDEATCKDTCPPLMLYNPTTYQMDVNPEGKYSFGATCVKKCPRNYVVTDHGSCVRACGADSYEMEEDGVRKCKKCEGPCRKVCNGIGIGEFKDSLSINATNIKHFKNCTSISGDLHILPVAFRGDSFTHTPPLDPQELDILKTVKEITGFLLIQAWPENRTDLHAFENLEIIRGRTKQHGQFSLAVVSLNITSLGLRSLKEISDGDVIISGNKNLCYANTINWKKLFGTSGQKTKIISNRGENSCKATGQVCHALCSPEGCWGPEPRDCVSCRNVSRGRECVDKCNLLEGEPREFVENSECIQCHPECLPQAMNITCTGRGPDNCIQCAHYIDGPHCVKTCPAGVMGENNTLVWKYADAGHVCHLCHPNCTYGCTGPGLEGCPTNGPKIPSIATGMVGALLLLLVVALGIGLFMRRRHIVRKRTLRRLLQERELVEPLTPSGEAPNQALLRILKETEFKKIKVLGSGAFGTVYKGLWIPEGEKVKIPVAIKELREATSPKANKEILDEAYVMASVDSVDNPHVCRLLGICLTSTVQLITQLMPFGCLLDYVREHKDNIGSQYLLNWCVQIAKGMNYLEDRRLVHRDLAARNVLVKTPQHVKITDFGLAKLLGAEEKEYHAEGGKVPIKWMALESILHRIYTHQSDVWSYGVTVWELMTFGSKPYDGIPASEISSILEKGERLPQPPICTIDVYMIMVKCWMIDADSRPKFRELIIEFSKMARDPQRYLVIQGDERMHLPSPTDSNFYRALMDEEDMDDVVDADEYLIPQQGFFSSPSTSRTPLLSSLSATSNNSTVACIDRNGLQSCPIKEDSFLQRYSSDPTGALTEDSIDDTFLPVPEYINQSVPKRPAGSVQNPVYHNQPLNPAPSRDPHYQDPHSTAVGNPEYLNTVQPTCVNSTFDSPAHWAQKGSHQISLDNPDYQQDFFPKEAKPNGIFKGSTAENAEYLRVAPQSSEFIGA
- Experimental Protocol: Cell proliferation inhibitory activity test (CellTiter-Glo), EGFR exon 20 insertion mutation
- Type: cell-based
- Settings: 72 h; class symbols; read-out: Ba/F3-FL-EGFR IC50 (nM) D77-N771ins SVD
Recorded Metric: GI50

| Compound | Result |
| --- | --- |
| C=CC(=O)Nc1cc(Nc2ncc(C(=O)OC(C)C)c(-c3cn(C)c4ccccc34)n2)c(OC)cc1N1C[C@H]2CN(C)C[C@H]2C1 [Example 36] | < 5 nM |
| C=C(F)C(=O)Nc1cc(Nc2ncc(-c3nnc(C)o3)c(-c3cn(C)c4ccccc34)n2)c(OC)cc1N(C)[C@H]1[C@@H]2CN(C)C[C@@H]21 [Example 34] | < 5 nM |

Next compound, GI50 to be filled in.
Task: Quick one: GI50 for [2H]C([2H])([2H])n1cc(-c2nc(Nc3cc(NC(=O)C=C)c(N(C)CCN(C)C)cc3OC)ncc2-c2nnc(C)o2)c2ccccc21 [Example 24] ?
Result: < 5 nM
